Origin of the recorded values: patent EP0394553A2

System: HIV (LAV 1)
Assay Text: microbe, parasite or virus in culture
Particulars: Human immunodeficiency virus 1, CCRF-CEM, read-out: Viable cell percentage, 10 mcg/ml, 4-day addition, after 7 days

{"Molecule": "CCCCN1CCN(c2c(F)cc3c(=O)c(C(=O)O)cn4c3c2OCC4C)CC1 (racemic)", "viability at 10 µg/mL [%]": 67}
{"Molecule": "C[C@H]1COc2c(N3CCN(C)CC3)c(F)cc3c(=O)c(C(=O)O)cn1c23 [DR-3355, hemihydrate]", "viability at 10 µg/mL [%]": 68}
{"Molecule": "CC(C)N1CCN(c2c(F)cc3c(=O)c(C(=O)O)cn4c3c2OCC4C)CC1 (racemic)", "viability at 10 µg/mL [%]": 67}
{"Molecule": "CCN1CCN(c2c(F)cc3c(=O)c(C(=O)O)cn4c3c2OCC4C)CC1 (racemic)", "viability at 10 µg/mL [%]": 74}
{"Molecule": "CCn1cc(C(=O)O)c(=O)c2cc(F)c(N3CCNCC3)cc21", "viability at 10 µg/mL [%]": 71}
{"Molecule": "CC1COc2c(N3CCN(C)CC3)c(F)cc3c(=O)c(C(=O)O)cn1c23 (racemic)", "viability at 10 µg/mL [%]": 73}
{"Molecule": "CCCN1CCN(c2c(F)cc3c(=O)c(C(=O)O)cn4c3c2OCC4C)CC1 (racemic)", "viability at 10 µg/mL [%]": 70}
